Data provenance is patent US12599136B2.

- System: Digitaria sanguinalis
- assayInfo: Pre-emergence herbicidal action against DIGSA
- Type: in vivo
- experimentalContext: 20 g/ha
Can you tell me Pre-emergence action against DIGSA for the items I'm about to list?
All answers are understood in %, so give the number only.

Which Pre-emergence action against DIGSA is reported with Digitaria sanguinalis for this entry: "CCN(C(=O)c1c(C(F)(F)F)ccc(C(=O)Nc2nnnn2C)c1Cl)C1CC1" ?
90

Which Pre-emergence action against DIGSA is reported with Digitaria sanguinalis for this entry: "CN(C)C(=O)c1c(C(F)F)ccc(C(=O)Nc2nnnn2C)c1Cl" ?
100

Which Pre-emergence action against DIGSA is reported with Digitaria sanguinalis for this entry: "CCn1nnnc1NC(=O)c1ccc(C(F)F)c(C(=O)N(C)C)c1Cl" ?
100

Which Pre-emergence action against DIGSA is reported with Digitaria sanguinalis for this entry: "CCn1nnnc1NC(=O)c1ccc(C(F)(F)F)c(C(=O)N(C)C)c1C" ?
100

Which Pre-emergence action against DIGSA is reported with Digitaria sanguinalis for this entry: "CCN(CC)C(=O)c1c(C(F)(F)F)ccc(C(=O)Nc2nnnn2CC)c1C" ?
90

Which Pre-emergence action against DIGSA is reported with Digitaria sanguinalis for this entry: "CCN(C(=O)c1c(C(F)(F)F)ccc(C(=O)Nc2nnnn2CC)c1C)C1CC1" ?
100

Which Pre-emergence action against DIGSA is reported with Digitaria sanguinalis for this entry: "CCOC(=O)[C@@H]1CCCN1C(=O)c1c(C(F)(F)F)ccc(C(=O)Nc2nnnn2C)c1C" ?
90

Which Pre-emergence action against DIGSA is reported with Digitaria sanguinalis for this entry: "CN(C(=O)c1c(C(F)(F)F)ccc(C(=O)Nc2nnnn2C)c1Cl)C1CC1" ?
100

----------
- System: Abutilon theophrasti
- assayInfo: Post-emergence herbicidal action against ABUTH
- Format: in vivo
- experimentalContext: 5 g/ha
endpointLabel: Post-emergence action against ABUTH
Provide the measurement as a number trailed by its unit.

So what does the record say about Post-emergence action against ABUTH for "CCN(C)C(=O)c1c(C(F)F)ccc(C(=O)Nc2nnnn2CC)c1Cl" ?
80%

So what does the record say about Post-emergence action against ABUTH for "CCCn1nnnc1NC(=O)c1ccc(C(F)(F)F)c(C(=O)N(C)CC2CC2)c1Cl" ?
100%

So what does the record say about Post-emergence action against ABUTH for "CCn1nnnc1NC(=O)c1ccc(C(F)(F)F)c(C(=O)N(C)CC(F)F)c1Cl" ?
80%

So what does the record say about Post-emergence action against ABUTH for "CCN(C(=O)c1c(C(F)F)ccc(C(=O)Nc2nnnn2CC)c1Cl)C1CC1" ?
90%

----------
Can you tell me Herbicidal action against SETVI for the items I'm about to list?
- Test system: Setaria viridis
- assayInfo: Post-emergence herbicidal action against SETVI
- Assay type: in vivo
- experimentalContext: comparative experiment, 5 g a.i./ha
- Method: Seeds of monocotyledonous and dicotyledonous weed and crop plants are laid out in sandy loam soil in wood-fiber pots, covered with soil and cultivated in a greenhouse under good growth conditions. 2 to 3 weeks after sowing, the test plants are treated at the one-leaf stage. […]
API doc: respond with a numeric literal and nothing else, no unit.

So what does the record say about Herbicidal action against SETVI for "CCn1nnnc1NC(=O)c1ccc(C(F)(F)F)c(C(=O)N(C)C)c1Cl" ?
100

So what does the record say about Herbicidal action against SETVI for "CN(C)C(=O)c1c(C(F)F)ccc(C(=O)Nc2nnnn2C)c1Cl" ?
100

So what does the record say about Herbicidal action against SETVI for "CN(C)C(=O)c1c(C(F)(F)F)ccc(C(=O)Nc2nnnn2C)c1Cl" ?
100

So what does the record say about Herbicidal action against SETVI for "CCn1nnnc1NC(=O)c1ccc(C(F)F)c(C(=O)N(C)C)c1Cl" ?
90

----------
Can you tell me Pre-emergence action against PHBPU for the items I'm about to list?
- Tested on: Pharbitis purpurea
- assayInfo: Pre-emergence herbicidal action against PHBPU
- Type: in vivo
- experimentalContext: 320 g/ha; visual score after 3 weeks vs untreated controls
Provide the measurement as a number trailed by its unit.

Which Pre-emergence action against PHBPU is reported with Pharbitis purpurea for this entry: CCCn1nnnc1NC(=O)c1ccc(C(F)(F)F)c(C(=O)N(C)C)c1Cl [Example 3-123] ?
90%

Which Pre-emergence action against PHBPU is reported with Pharbitis purpurea for this entry: CCN(C)C(=O)c1c(C(F)(F)F)ccc(C(=O)Nc2nnnn2CC)c1Cl [Example 2-124] ?
90%

Which Pre-emergence action against PHBPU is reported with Pharbitis purpurea for this entry: CCCn1nnnc1NC(=O)c1ccc(C(F)(F)F)c(C(=O)N(C)CC2CC2)c1Cl [Example 3-126] ?
80%

Which Pre-emergence action against PHBPU is reported with Pharbitis purpurea for this entry: Cn1nnnc1NC(=O)c1ccc(C(F)(F)F)c(C(=O)n2cccn2)c1Cl [Example 1-153] ?
90%

Which Pre-emergence action against PHBPU is reported with Pharbitis purpurea for this entry: CCN(C)C(=O)c1c(C(F)(F)F)ccc(C(=O)Nc2nnnn2C)c1Cl [Example 1-124] ?
90%

Which Pre-emergence action against PHBPU is reported with Pharbitis purpurea for this entry: CCCn1nnnc1NC(=O)c1ccc(C(F)(F)F)c(C(=O)N2CCCC2)c1Cl [Example 3-152] ?
100%

----------
- System: Alopecurus myosuroides
- assayInfo: Post-emergence herbicidal action against ALOMY
- Type: in vivo
- experimentalContext: 80 g/ha
endpointLabel: Post-emergence action against ALOMY (%)
All answers are understood in %, so give the number only.

So what does the record say about Post-emergence action against ALOMY for "CCCn1nnnc1NC(=O)c1ccc(C(F)(F)F)c(C(=O)N(C)CC2CC2)c1Cl" ?
80

So what does the record say about Post-emergence action against ALOMY for "CN(C)C(=O)c1c(C(F)(F)F)ccc(C(=O)Nc2nnnn2C)c1Cl" ?
100

So what does the record say about Post-emergence action against ALOMY for "CCN(C)C(=O)c1c(C(F)(F)F)ccc(C(=O)Nc2nnnn2CC)c1Cl" ?
100

----------
Can you tell me Post-emergence action against ABUTH for the items I'm about to list?
- System: Abutilon theophrasti
- assayInfo: Post-emergence herbicidal action against ABUTH
- Format: in vivo
- experimentalContext: 5 g/ha
- Method: Seeds of monocotyledonous and dicotyledonous weed and crop plants are laid out in sandy loam soil in wood-fiber pots, covered with soil and cultivated in a greenhouse under good growth conditions. 2 to 3 weeks after sowing, the test plants are treated at the one-leaf stage. […]

So what does the record say about Post-emergence action against ABUTH for "CCN(C)C(=O)c1c(Br)ccc(C(=O)Nc2nnnn2C)c1Cl" ?
90%

So what does the record say about Post-emergence action against ABUTH for "Cn1nnnc1NC(=O)c1ccc(C(F)(F)F)c(C(=O)N2CCCC2)c1Cl" ?
100%

So what does the record say about Post-emergence action against ABUTH for "CCCn1nnnc1NC(=O)c1ccc(C(F)(F)F)c(C(=O)n2cccn2)c1Cl" ?
90%

So what does the record say about Post-emergence action against ABUTH for "CCN(CC)C(=O)c1c(C(F)F)ccc(C(=O)Nc2nnnn2CC)c1Cl" ?
80%

So what does the record say about Post-emergence action against ABUTH for "CCn1nnnc1NC(=O)c1ccc(C(F)F)c(C(=O)N(C)C)c1C" ?
90%

So what does the record say about Post-emergence action against ABUTH for "CCn1nnnc1NC(=O)c1ccc(Br)c(C(=O)N(C)C)c1Cl" ?
90%

So what does the record say about Post-emergence action against ABUTH for "CCN(C)C(=O)c1c(C(F)F)ccc(C(=O)Nc2nnnn2C)c1Cl" ?
90%

So what does the record say about Post-emergence action against ABUTH for "CN(CC1CC1)C(=O)c1c(C(F)(F)F)ccc(C(=O)Nc2nnnn2C)c1Cl" ?
100%

So what does the record say about Post-emergence action against ABUTH for "CCN(C(=O)c1c(C(F)(F)F)ccc(C(=O)Nc2nnnn2CC)c1Cl)C1CC1" ?
80%

----------
Can you tell me Pre-emergence action against DIGSA for the items I'm about to list?
- System: Digitaria sanguinalis
- assayInfo: Pre-emergence herbicidal action against DIGSA
- Assay type: in vivo
- experimentalContext: 80 g/ha
All answers are understood in %, so give the number only.

So what does the record say about Pre-emergence action against DIGSA for "CCN(CC)C(=O)c1c(C(F)(F)F)ccc(C(=O)Nc2nnnn2CC)c1Cl" ?
90

So what does the record say about Pre-emergence action against DIGSA for "CCn1nnnc1NC(=O)c1ccc(C(F)(F)F)c(C(=O)N(C)C)c1C" ?
100

So what does the record say about Pre-emergence action against DIGSA for "Cc1c(C(=O)Nc2nnnn2C)ccc(C(F)(F)F)c1C(=O)N(C)C" ?
100

So what does the record say about Pre-emergence action against DIGSA for "CN(C)C(=O)c1c(C(F)F)ccc(C(=O)Nc2nnnn2C)c1Cl" ?
100

So what does the record say about Pre-emergence action against DIGSA for "CCn1nnnc1NC(=O)c1ccc(C(F)F)c(C(=O)N(C)C)c1Cl" ?
100

So what does the record say about Pre-emergence action against DIGSA for "CCN(C(=O)c1c(C(F)(F)F)ccc(C(=O)Nc2nnnn2CC)c1C)C1CC1" ?
100

So what does the record say about Pre-emergence action against DIGSA for "Cc1c(C(=O)Nc2nnnn2C)ccc(C(F)(F)F)c1C(=O)N(C)C1CC1" ?
100

So what does the record say about Pre-emergence action against DIGSA for "CCN(CC)C(=O)c1c(C(F)(F)F)ccc(C(=O)Nc2nnnn2C)c1C" ?
100

So what does the record say about Pre-emergence action against DIGSA for "CCN(C)C(=O)c1c(C(F)(F)F)ccc(C(=O)Nc2nnnn2C)c1C" ?
90

So what does the record say about Pre-emergence action against DIGSA for "Cn1nnnc1NC(=O)c1ccc(C(F)(F)F)c(C(=O)N(C2CC2)C2CC2)c1Cl" ?
100

So what does the record say about Pre-emergence action against DIGSA for "CCn1nnnc1NC(=O)c1ccc(C(F)(F)F)c(C(=O)N(C)CC(F)F)c1Cl" ?
100

So what does the record say about Pre-emergence action against DIGSA for "CCOC(=O)[C@@H]1CCCN1C(=O)c1c(C(F)(F)F)ccc(C(=O)Nc2nnnn2CC)c1C" ?
100

So what does the record say about Pre-emergence action against DIGSA for "CCOC(=O)[C@@H]1CCCN1C(=O)c1c(C(F)(F)F)ccc(C(=O)Nc2nnnn2CC)c1Cl" ?
90

So what does the record say about Pre-emergence action against DIGSA for "CCN(C(=O)c1c(C(F)(F)F)ccc(C(=O)Nc2nnnn2C)c1Cl)C1CC1" ?
100

So what does the record say about Pre-emergence action against DIGSA for "CCOC(=O)[C@@H]1CCCN1C(=O)c1c(C(F)(F)F)ccc(C(=O)Nc2nnnn2C)c1C" ?
100

So what does the record say about Pre-emergence action against DIGSA for "CN(C(=O)c1c(C(F)(F)F)ccc(C(=O)Nc2nnnn2C)c1Cl)C1CC1" ?
100

So what does the record say about Pre-emergence action against DIGSA for "CCN(C(=O)c1c(C(F)(F)F)ccc(C(=O)Nc2nnnn2C)c1C)C1CC1" ?
100
